Test system: HT-29
Test: Antiproliferative activity against human HT-29 cells assessed as cell growth inhibition at 25 uM incubated for 72 hrs by MTT assay relative to control
Assay type: functional
observable: inhibition at 25 µM

-- ask Using the record for COc1cccc(/C=C/c2nc3ccccc3c(=O)[nH]2)c1 , report its inhibition at 25 µM.
-- reply > 100%

-- ask Let us now turn to Cc1ccc(C2NC(=O)c3ccccc3N2)cc1 (stereo unspecified)
-- reply > 100%

-- ask Now consider O=C1NC(c2cccc(C(F)(F)F)c2)Nc2ccccc21 (stereo unspecified) .
-- reply > 100%

-- ask What would you report for O=C1NC(c2cccc(Br)c2)Nc2ccccc21 (stereo unspecified) ?
-- reply > 100%

-- ask Item: O=C1NC(c2ccccc2Br)Nc2ccccc21 (stereo unspecified)
-- reply > 100%

-- ask Another compound: O=C1NC(/C(Br)=C/c2ccccc2)Nc2ccccc21 (stereo unspecified)
-- reply > 100%

-- ask How about this compound: O=C1NC(c2cc3ccccc3o2)Nc2ccccc21 (stereo unspecified)
-- reply ≥ 92%

-- ask Request: O=c1[nH]c(/C=C/c2ccccc2)nc2ccccc12
-- reply > 100%

-- ask Could you do the same for Cc1ccc(/C=C/c2nc(O)c3ccccc3n2)cc1 , please?
-- reply > 100%

-- ask Next compound: CCCC/C=C/c1nc2ccccc2c(=O)[nH]1
-- reply < 10%

-- ask // same read-out, input: O=c1[nH]c(/C=C/c2cccc(O)c2)nc2ccccc12
-- reply > 100%

-- ask Quick one: O=C1NC(C2CC=CCC2)Nc2ccccc21 (stereo unspecified)
-- reply > 100%

-- ask How about COc1ccccc1/C=C/c1nc2ccccc2c(=O)[nH]1 ?
-- reply > 100%

-- ask And then O=C1NC(c2ccc(Br)cc2)Nc2ccccc21 (stereo unspecified) , what is it?
-- reply > 100%

-- ask Also, O=C1NC(c2ccc3ccccc3c2)Nc2ccccc21 (stereo unspecified) please.
-- reply > 100%

-- ask Repeat with O=C1NC(c2ccc(O)cc2)Nc2ccccc21 (stereo unspecified)
-- reply > 100%

-- ask Same for O=C1NC(c2ccc([N+](=O)[O-])cc2)Nc2ccccc21 (stereo unspecified)
-- reply 70%

-- ask Same question for O=C1NC(c2cccc([N+](=O)[O-])c2)Nc2ccccc21 (stereo unspecified) please.
-- reply 78%

-- ask Another compound to look at: O=C1NC(c2ccc(-c3ccccc3)cc2)Nc2ccccc21 (stereo unspecified)
-- reply > 100%

-- ask Ok, now O=C1NC(/C=C/c2ccccc2[N+](=O)[O-])Nc2ccccc21 (stereo unspecified)
-- reply 37%

-- ask Moving on to CCCCCCCCC1NC(=O)c2ccccc2N1 (stereo unspecified)
-- reply 93%

-- ask What do we get for O=C1NC(c2ccc3nsnc3c2)Nc2ccccc21 (stereo unspecified) ?
-- reply 35%

-- ask What about this compound? O=C1NC(c2cccs2)Nc2ccccc21 (stereo unspecified)
-- reply 90%

-- ask Repeat for the following compound: O=C1NC(c2cccnc2)Nc2ccccc21 (stereo unspecified)
-- reply < 10%

-- ask Same for Oc1nc(-c2ccncc2)nc2ccccc12
-- reply 11%

-- ask Try O=C1NC(c2c[nH]c3ccccc23)Nc2ccccc21 (stereo unspecified) next.
-- reply ≥ 84%

-- ask Same again, this time with COc1cccc(C2NC(=O)c3ccccc3N2)c1 (stereo unspecified)
-- reply > 100%

-- ask Another compound to look at: O=C1NC(/C=C/c2ccco2)Nc2ccccc21 (stereo unspecified)
-- reply 90%

-- ask // repeat for O=C1NC(c2cccc3ccccc23)Nc2ccccc21 (stereo unspecified) and report
-- reply > 100%

-- ask And for O=C1NC(C2CCCCC2)Nc2ccccc21 (stereo unspecified) ?
-- reply 23%

-- ask What do we get for O=C1NC(c2ccc(Br)o2)Nc2ccccc21 (stereo unspecified) ?
-- reply < 10%

-- ask Quick one: CCCCC1NC(=O)c2ccccc2N1 (stereo unspecified)
-- reply 32%

-- ask Now this one: O=C1NC(c2cccc(O)c2)Nc2ccccc21 (stereo unspecified)
-- reply > 100%

-- ask Can you handle O=c1[nH]c(/C=C/c2ccc(O)cc2)nc2ccccc12 next?
-- reply > 100%

-- ask Moving on to the next compound: O=C1NC(c2ccccc2[N+](=O)[O-])Nc2ccccc21 (stereo unspecified)
-- reply 28%

-- ask Continue with O=c1[nH]c(-c2ccc(Br)cc2)nc2ccccc12
-- reply 91%
